The measured values listed here are drawn from the supplement of paper PMC8728848.

Target: GlcNAc(b1-3)Gal(b1-4)GlcNAc(b1-3)Gal(b1-4)GlcNAc(b1-3)Gal(b1-4)GlcNAc(b1-3)Gal(b1-4)GlcNAc(b1-2)[GlcNAc(b1-3)Gal(b1-4)GlcNAc(b1-3)Gal(b1-4)GlcNAc(b1-3)Gal(b1-4)GlcNAc(b1-3)Gal(b1-4)GlcNAc(b1-6)]Man(a1-6)[GlcNAc(b1-3)Gal(b1-4)GlcNAc(b1-3)Gal(b1-4)GlcNAc(b1-3)Gal(b1-4)GlcNAc(b1-3)Gal(b1-4)GlcNAc(b1-2)Man(a1-3)]Man(b1-4)GlcNAc(b1-4)[Fuc(a1-6)]GlcNAc
Experiment: glycan array binding signal (z-score within array); higher = stronger binding
Details: glycan notation: IUPAC condensed, linker removed
This is one part of a sample in which the strongest signals are shown more often than they occur.
Below: a set of entries, each annotated with reported glycan array binding signal (z-score).
Measure Name: glycan array binding signal (z-score)

1) MPA (Maclura pomifera), P18674 (protein) GVTFDDGAYTGIREINFEYNSETAIGGLRVTYDLNGMPFVAEDHKSFITGFKPVKISLEFPSEYIVEVSGYVGKVEGYTVIRSLTFKTNKQTYGPYGVTNGTPFSLPIENGLIVGFKGSIGYWLDYFSIYLSL | 0.56
2) Drgal1 (Danio rerio) (protein) MAGVLIQNMSFKVGQTLTITGVPKPDSTNFAINIGHSPEDIALHMNPRFDAHGDQCTIVCNSFQSGSWCEEHRDDNFPFIQDKEFQIKITFTNEEFLVTLPDGSEIHFPNRQGSEKYKYMYFEGEVRIQGVEIK | 1.89
3) LlpA (Arthrobacter sp) (protein) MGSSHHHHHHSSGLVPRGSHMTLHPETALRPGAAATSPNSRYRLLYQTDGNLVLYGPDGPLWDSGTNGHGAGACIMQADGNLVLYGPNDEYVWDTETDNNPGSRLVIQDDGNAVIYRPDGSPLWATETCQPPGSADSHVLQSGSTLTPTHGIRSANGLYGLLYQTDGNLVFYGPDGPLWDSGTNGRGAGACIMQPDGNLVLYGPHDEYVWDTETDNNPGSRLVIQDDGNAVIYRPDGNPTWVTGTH | 1.82
